Measured values drawn from patent US20180355059A1 for this set.

Study system: T1, recombinant cyno monkey PCSK9 protein (cyno monkey, UniProt A8T666 31-692 (rhesus entry), limits assumed, biotinylated in the ELISA assays)
T1 construct: also called cyno PCSK9; Cyno Monkey PCSK9-His
T1 sequence (A8T666 31-692 limits assumed): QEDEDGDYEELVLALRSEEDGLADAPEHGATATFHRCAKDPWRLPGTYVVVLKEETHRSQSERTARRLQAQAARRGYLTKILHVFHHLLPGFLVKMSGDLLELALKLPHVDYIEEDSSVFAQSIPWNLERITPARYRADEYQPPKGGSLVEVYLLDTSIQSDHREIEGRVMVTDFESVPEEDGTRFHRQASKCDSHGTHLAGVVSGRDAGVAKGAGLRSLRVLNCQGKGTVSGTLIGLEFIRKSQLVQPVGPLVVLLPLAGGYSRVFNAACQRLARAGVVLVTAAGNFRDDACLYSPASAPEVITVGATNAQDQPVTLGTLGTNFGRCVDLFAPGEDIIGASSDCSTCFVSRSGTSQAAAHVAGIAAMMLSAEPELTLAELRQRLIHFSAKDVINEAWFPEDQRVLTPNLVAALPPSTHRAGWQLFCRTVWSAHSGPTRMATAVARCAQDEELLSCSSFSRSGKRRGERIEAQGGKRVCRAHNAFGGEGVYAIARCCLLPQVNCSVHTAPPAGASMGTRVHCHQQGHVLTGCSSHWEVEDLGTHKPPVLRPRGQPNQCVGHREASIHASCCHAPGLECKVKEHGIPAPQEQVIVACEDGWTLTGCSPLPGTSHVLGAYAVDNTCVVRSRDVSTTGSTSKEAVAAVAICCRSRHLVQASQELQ
Assay method text: ELISA; antibody 66.67 nM
Readout name: OD450 nm
Field: value (include unit after the number)

QUERY: # OD450 nm lookup, item 76A1B11, fully human anti-PCSK9 antibody (antibody, human IgG1, V domains shown) VH: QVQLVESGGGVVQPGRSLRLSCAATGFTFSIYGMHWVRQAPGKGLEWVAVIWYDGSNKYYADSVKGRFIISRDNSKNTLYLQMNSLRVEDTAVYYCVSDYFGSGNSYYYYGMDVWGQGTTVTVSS VL: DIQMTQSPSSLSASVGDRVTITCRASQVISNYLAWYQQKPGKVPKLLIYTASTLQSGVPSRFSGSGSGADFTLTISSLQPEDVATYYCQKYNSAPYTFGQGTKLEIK
RESULT: 3 OD450 nm

QUERY: # OD450 nm lookup, item 139G1C5, fully human anti-PCSK9 antibody (antibody, human IgG1, V domains shown) VH: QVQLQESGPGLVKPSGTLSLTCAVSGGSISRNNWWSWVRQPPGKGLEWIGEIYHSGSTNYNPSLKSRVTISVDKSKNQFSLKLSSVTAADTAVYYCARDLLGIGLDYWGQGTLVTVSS VL: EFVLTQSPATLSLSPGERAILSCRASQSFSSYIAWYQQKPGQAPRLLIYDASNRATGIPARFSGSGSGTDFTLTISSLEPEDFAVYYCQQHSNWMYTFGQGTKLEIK
RESULT: 3 OD450 nm

QUERY: # OD450 nm lookup, item 152G2F7, fully human anti-PCSK9 antibody (antibody, human IgG1, V domains shown) VH: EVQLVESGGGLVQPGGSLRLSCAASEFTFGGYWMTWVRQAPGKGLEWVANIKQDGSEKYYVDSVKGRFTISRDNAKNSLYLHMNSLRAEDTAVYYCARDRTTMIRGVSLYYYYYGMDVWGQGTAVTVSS VL: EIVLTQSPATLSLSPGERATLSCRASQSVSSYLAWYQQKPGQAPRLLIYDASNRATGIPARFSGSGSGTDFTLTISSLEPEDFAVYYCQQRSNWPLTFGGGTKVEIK
RESULT: 2.97 OD450 nm

QUERY: # OD450 nm lookup, item 74C10A8, fully human anti-PCSK9 antibody (antibody, human IgG1, V domains shown) VH: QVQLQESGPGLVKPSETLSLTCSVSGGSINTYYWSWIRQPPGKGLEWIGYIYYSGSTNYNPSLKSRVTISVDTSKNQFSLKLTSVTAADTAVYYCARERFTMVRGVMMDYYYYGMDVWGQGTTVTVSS VL: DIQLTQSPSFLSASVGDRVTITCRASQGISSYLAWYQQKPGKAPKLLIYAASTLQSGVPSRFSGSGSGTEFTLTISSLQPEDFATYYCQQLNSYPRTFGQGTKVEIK
RESULT: 2.86 OD450 nm
